System: P388 leukemia ip, CD2F1 mice, survival T/C
Assay: NCI In Vivo Anticancer Drug Screen. Data for tumor model P388 Leukemia (intraperitoneal) in CD2F1 (CDF1) mice
Details: endpoint: median survival time; dose: 60.0 mg/kg/injection; schedule: Q01DX005 (ip); vehicle: saline with Tween-80; higher = longer survival
Procedure: The antitumor activity of compounds was measured in mice bearing transplantable tumors. Survival or tumor size were measured and the results are expressed as the measurement made in the treated group (T) divided by the measurement made in the vehicle treated control group (C). The tumor model used in this assay is P388 Leukemia (intraperitoneal) in CD2F1 (CDF1) mice
Inconclusive results and toxic doses are left out.
For each entry below, report its T/C value.

Quick check: T/C of CCc1c(N2CCOCC2)c(C#N)c2nc3ccccc3n2c1N1CCOCC1 ?
99 % of control

Another compound: CSc1nc(NC2OCC(O)C(O)C2O)c(C=O)c(=O)n1C (stereo not drawn)
96 % of control

Another compound: CC(=O)OC1CC2CC(O)(C(=O)CO)CC2C2CCC3=CC(=O)CC3C(C)(O)C12 (stereo not drawn)
100 % of control

Another compound: O=C(Cc1ccc(CC(=O)NCCCCc2ccccc2)cc1)NCCCCc1ccccc1
88 % of control

Another compound: COc1ccc(Cl)cc1Cn1ccnc1
97 % of control

Another compound: COc1cc(C(=O)NNC(=O)C2CCC(=O)N2Cc2ccccc2)cc(OC)c1OC (stereo not drawn)
89 % of control

Another compound: CC(=O)OCC1OC(n2cnc3c(=O)n(S(=O)(=O)c4ccc(C)cc4)cnc32)C(OC(C)=O)C1OC(C)=O (stereo not drawn)
103 % of control

Another compound: O=C(Nc1cc(Cl)cc(Cl)c1)N1CCOCC1
92 % of control

Another compound: NC(=O)c1coc2c1C(=O)c1ccc3ccccc3c1CC2
102 % of control

Another compound: COc1ccc(-c2cn(-c3ccc(OC)cc3)c3ncnc(N)c23)cc1
102 % of control

Another compound: Cc1nc(N)[nH]c(=O)c1CCCNC(=O)c1cccc([N+](=O)[O-])c1
94 % of control

Another compound: C(=C\c1ccccn1)/c1ccc(/C=C/c2ccccn2)cc1
98 % of control

Another compound: COC(=O)C(=O)C(C)C(=O)C(C)c1nc(NC(=O)Nc2ccc(Cl)cc2)n[nH]1 (stereo not drawn)
101 % of control

Another compound: CCN(CC)C(=O)c1cc(OC)c(C(=O)N(CC)CC)cc1OC
100 % of control

Another compound: O=C(NCCN1CCNCC1)c1ccc(Cl)cc1
97 % of control

Another compound: Cc1cc(=O)c2ccc(Cl)c(C)c2[nH]1
110 % of control

Another compound: Cc1ccc(S(=O)(=O)NNC(=O)c2nc3ccccc3c(=O)[nH]2)cc1
100 % of control

Another compound: C/C(=C\C(=O)Nc1ccc(S(=O)(=O)F)cc1)c1ccc([N+](=O)[O-])cc1
100 % of control

Another compound: COC(=O)C(C)Oc1ccc(OC#N)cc1 (stereo not drawn)
102 % of control

Another compound: OC1COC(Sc2ncc[nH]2)C(O)C1O (stereo not drawn)
97 % of control

Another compound: Cc1ccc(S(=O)(=O)OCC2COC(C(C)C)OC2)cc1 (stereo not drawn)
99 % of control

Another compound: Nc1nc2c(c(-c3nc(N)nc4c3Cc3ccccc3-4)n1)Cc1ccccc1-2
98 % of control

Another compound: O=C(CNC(=O)NCc1ccco1)NNC(=O)Nc1ccc(Cl)c([N+](=O)[O-])c1
95 % of control
